assay: Stability of (Z)-Endoxifen in acetone (HPLC peak table over time); assay type: physicochemical; settings: acetone at reflux (56° C.), 3 hr
experimental endpoint: HPLC peak RT 20.51, RRT 1.35

Note to self: HPLC peak RT 20.51, RRT 1.35 recorded for CC/C(=C(\c1ccc(O)cc1)c1ccc(OCCNC)cc1)c1ccccc1 [(Z)-endoxifen] was 0.06%

====

assay: Solvent mixture solubility tests of (Z)-endoxifen; assay type: physicochemical; conditions: water/acetonitrile (50/50 v/v), aqueous with cosolvent or surfactant or cyclodextrin, thermodynamic from solid, water/acetonitrile (50/50 v/v), high temperature; read-out: Solubility
experimental endpoint: solubility

Note to self: solubility recorded for CC/C(=C(\c1ccc(O)cc1)c1ccc(OCCNC)cc1)c1ccccc1 [(Z)-endoxifen] was < 40 mg/mL

====

experiment: Stability of (Z)-Endoxifen in acetone (HPLC peak table over time); format: physicochemical; details: acetone at reflux (56° C.), 27 hr
experimental endpoint: HPLC peak RT 20.51, RRT 1.35 (%)
Provide only the numeric value, understood in %.

Note to self: HPLC peak RT 20.51, RRT 1.35 recorded for CC/C(=C(\c1ccc(O)cc1)c1ccc(OCCNC)cc1)c1ccccc1 [(Z)-endoxifen] was 0.1

====

test: Stability of (Z)-Endoxifen in acetone (HPLC peak table over time); assay type: physicochemical; conditions: acetone at reflux (56° C.), T0
experimental endpoint: HPLC peak RT 27.45, RRT 1.81 (%)
Provide only the numeric value, understood in %.

Note to self: HPLC peak RT 27.45, RRT 1.81 recorded for CC/C(=C(\c1ccc(O)cc1)c1ccc(OCCNC)cc1)c1ccccc1 [(Z)-endoxifen] was 0.17

====

experiment: Stability of (Z)-Endoxifen in acetone (HPLC peak table over time); assay type: physicochemical; conditions: acetone at reflux (56° C.), 27 hr
experimental endpoint: HPLC peak RT 27.88, RRT 1.84 (%)
Provide only the numeric value, understood in %.

Note to self: HPLC peak RT 27.88, RRT 1.84 recorded for CC/C(=C(\c1ccc(O)cc1)c1ccc(OCCNC)cc1)c1ccccc1 [(Z)-endoxifen] was 0.04

====

test: Stability of (Z)-Endoxifen in acetone (HPLC peak table over time); assay type: physicochemical; conditions: acetone at reflux (56° C.), 27 hr
experimental endpoint: E-form, RT 14.58, RRT 0.96 (%)
Provide only the numeric value, understood in %.

Note to self: E-form, RT 14.58, RRT 0.96 recorded for CC/C(=C(\c1ccc(O)cc1)c1ccc(OCCNC)cc1)c1ccccc1 [(Z)-endoxifen] was 1.53

====

Experiment: Solvent mixture solubility tests of (Z)-endoxifen
Type: physicochemical
Details: acetone/2-propanol 67/33 v/v, organic solvent or mixture, thermodynamic from solid, acetone/2-propanol 67/33 v/v; 100 mg/mL; high temperature; read-out: Solubility HT (100 mg/mL): Sol. HT
Protocol: To test the solubility of (Z)-endoxifen in varying conditions, 10 mg of (Z)-endoxifen was added to a stoppered tube, and 0.01 ml of the selected solvent was added (1000 mg/ml solution). The tube was shaken vigorously for 1 minute and then incubated at a constant temperature of 25.0° C. for 15 minutes. If the solid was not completed dissolved, the tube was shaken again and placed at the constant temperature of 25.0° C. for another 15 minutes. […]
experimental endpoint: solubility

Note to self: solubility recorded for CC/C(=C(\c1ccc(O)cc1)c1ccc(OCCNC)cc1)c1ccccc1 [(Z)-endoxifen] was < 100 mg/mL
